# System: NCI-H226 lung
# Assay Comment: NCI tumour cell line growth inhibition, 48 h
Value Kind: GI50

So what GI50 did `C#CCOC(=O)/C=C/C(=O)Oc1ccc2c(C)cc(=O)oc2c1` get with NCI-H226 lung?
> 100 µM

----------
Below, each entry is listed alongside its reported TGI.
# Test system: SF-268 CNS
# Assay Comment: NCI tumour cell line growth inhibition, 48 h

Returns the measured TGI for the input compound. Input: Cc1ccc2[nH]c(C(=O)NN3C(=O)C(C)SC34CCC(C)CC4)c(-c3ccccc3)c2c1 (centres undefined)
35.5 µM

Need TGI, item `O=C1c2cc3c(cc2-c2c1c1ccc(F)cc1c(=O)n2C[C@H](O)[C@H](O)[C@H](O)CO)OCO3`
2.97 µM

Dear colleague, I am looking for the recorded TGI of the following compound: `CSc1nc(-c2ccccc2)nc(C(C#N)C#N)n1`
> 100 µM

Fill blank: measured TGI of the compound `C=CCOc1ccc(N)c([N+](=O)[O-])c1` is ____.
> 100 µM

More entries:
Find the recorded TGI belonging to `CCOC(=O)CNC(=O)OCc1ccccc1` and report it.
> 100 µM

Value lookup for TGI; key = CN/N=C(\C(=O)Nc1ccc(C(F)(F)F)cc1[N+](=O)[O-])C(c1cnc2ccc([N+](=O)[O-])cc2n1)[N+](=O)[O-] (centres undefined)
> 100 µM

Reported TGI, compound `CN(CCNC(=O)c1nn(-c2ccc(Cl)cc2Cl)c2c1Cc1ccccc1-2)CCNC(=O)c1nn(-c2ccc(Cl)cc2Cl)c2c1Cc1ccccc1-2` : ____
> 100 µM

Would you mind telling me what TGI value was observed for `O=c1oc2cc(O)ccc2c2oc3cc(O)ccc3c12` ?
> 82.5 µM

Quick check: TGI of `COC(=O)C1=C(C(=O)ON)[C@@H]2C=C[C@@]1([C@@H](Cc1ccccc1)Nc1ccccc1)O2` ?
28.5 µM

----------
# Test system: UO-31 renal
# Assay Comment: NCI tumour cell line growth inhibition, 48 h
Value Kind: TGI

Sample answers from the record:
Endpoint output: TGI of `CC1=C[C@H]([C@H]2C=C(C)C(C(N)=O)=CN2Cc2c(Cl)cccc2Cl)N(Cc2c(Cl)cccc2Cl)C=C1C(N)=O` . Value?
> 75 µM

I have this compound here, `COC(=O)N/N=C(\C)CC(=O)Nc1cccc([N+](=O)[O-])c1` , and I need its recorded TGI.
> 100 µM

Quick one: TGI of `Cc1cccc2c(NCCN(C)C)c3cccc(C(=O)NCCN(C)C)c3nc12` ?
1.63 µM

Please find the next compound below.
Field request: TGI | item: CSc1nc(NC2OCC(OC(C)=O)C(OC(C)=O)C2OC(C)=O)c2c(n1)OCC2=O (stereo not given)
> 100 µM

----------
Below, each entry is listed alongside its reported TGI.
# Tested on: MOLT-4 leukemia
# Assay Comment: NCI tumour cell line growth inhibition, 48 h
Just the number please, in µM, no unit attached.

Which TGI reading was recorded for the molecule `O=[N+]([O-])c1cc(I)cc(/C=N/NS(=O)(=O)c2ccc(Cl)cc2)c1O` ?
51.5

----------
# Test system: HCT-15 colon
# Assay Comment: NCI tumour cell line growth inhibition, 48 h
Value Kind: GI50

API: value(readout=GI50, system=HCT-15 colon) for record `O=C(CCCC(=O)N/N=C/c1cc(Cl)ccc1O)N/N=C\c1cc(Cl)ccc1O`
0.574 µM

Continuing:
Field: GI50 (HCT-15 colon). Entry: `O=[N+]([O-])c1ccc(N=Nc2c(Cl)cc(O)cc2Cl)cc1`
2.02 µM

Report GI50 for `COC(=O)C1=C(C(=O)ON)[C@@H]2C=C[C@@]1([C@@H](Cc1ccccc1)Nc1ccccc1)O2` tested on HCT-15 colon.
1.76 µM

Hello, I am looking for reported GI50 with HCT-15 colon for `O=C(Nc1cccc(C(F)(F)F)c1)c1ccc(NC2=C(Cl)C(=O)N(Cc3ccccc3)C2=O)cc1` . Could you help?
4.41 µM

Identify the measured GI50 of `C#CCOC(=O)/C=C/C(=O)Oc1ccc2c(C)cc(=O)oc2c1` for HCT-15 colon.
> 100 µM

# returns recorded GI50 (system: HCT-15 colon) for `C/C(CC(C)(C)N1CC1)=N\NC(=O)Nc1cccc2ccccc12`
3.24 µM

Give HCT-15 colon GI50 for `O=C(Nc1n[nH]c2nc(-c3ccc(O)cc3)c(Br)cc12)C1CC1`
3.77 µM

Recall the recorded GI50 for Cc1ccc2[nH]c(C(=O)NN3C(=O)C(C)SC34CCC(C)CC4)c(-c3ccccc3)c2c1 (stereo not drawn) with HCT-15 colon and state it.
19.4 µM

----------
# Tested on: SNB-19 CNS
# Assay Comment: NCI tumour cell line growth inhibition, 48 h; in the data active = GI50 below about 0.43 µM; inactive = the rest
Form entry, call: pick from active, inactive

Please state the recorded outcome for this compound: `O=C(CCCC(=O)N/N=C/c1cc(Cl)ccc1O)N/N=C\c1cc(Cl)ccc1O`
inactive

What call does the record list for `O=C1c2ccccc2C(=O)c2c1oc1c2c(=O)[nH]c2ccc(Cl)cc21` ?
active

Per the assay record, what outcome was assigned to `COC(=O)C1=C(C(=O)ON)[C@@H]2C=C[C@@]1([C@@H](Cc1ccccc1)Nc1ccccc1)O2` ?
inactive

Can you look up the reported call for `COc1cc2c(/C=C3/C(=O)Nc4ccc(O)cc43)c(Cl)n(Cc3cc(OC)c(OC)c(OC)c3)c2cc1C` for me?
inactive

***
Hello, I am checking results. What call was entered for `CC(C)=Cc1cccc2[nH]c(O)c(N=Nc3ccc(S(N)(=O)=O)cc3)c12` ?
inactive

----------
Quick list: TGI per entry.
# System: TK-10 renal
# Assay Comment: NCI tumour cell line growth inhibition, 48 h
Peptide text beside a SMILES is read from it. * marks the point of attachment. X34 = O=C(c1ccc(-c2ccc(Cl)cc2Cl)o1)*

What does the record list as TGI for CC[C@]1(Cc2ccc(OC)c(OC)c2)C2CC(C(=O)OC)ON2O[C@H](OCc2ccccc2)[C@@H]1OC(C)=O (some centres undefined) ?
> 100 µM

Any idea what its TGI is? The compound is Oc1ccc(C2Oc3cc(O)cc4c3C2c2cc(O)cc3c2C(c2cc(O)cc5c2C4C(c2ccc(O)cc2)O5)C(c2ccc(O)cc2)O3)cc1 (centres undefined)
> 25 µM

// returns reported TGI for input CC1OC(CC(=O)O)Cc2c1c(O)c1c(O)cc(-c3cc(=O)c4c(=O)c5c(c(=O)c=4c3=O)CC(CC(=O)O)OC5C)c(O)c1c2O (centres undefined)
> 93 µM

What value of TGI has been recorded for this entry: `Cc1ccc2[nH]c(O)c(N=Nc3ccccc3[N+](=O)[O-])c2c1`
64.5 µM

Looking for the measured TGI of `O=C1/C(=C/c2ccccc2)CCc2ccc([N+](=O)[O-])cc21` , can you help?
> 100 µM

Now look at this entry.
Return reported TGI; argument: COC(=O)C(CC(C)C)NC(=O)C(Cc1ccccc1)NC(=O)C1CCCN1C(=O)C(CO)NC(=O)c1ccc(-c2ccc(Cl)cc2Cl)o1 (centres undefined) (X34-SPFL-OMe; configuration not given here)
67.5 µM

----------
# Tested on: OVCAR-4 ovarian
# Assay Comment: NCI tumour cell line growth inhibition, 48 h
Measured TGI accompanies every entry in the list below.

What value of measured TGI is listed for `c1ccc(SCCc2ccncc2)cc1` ?
> 100 µM

TGI for `CCOP(=O)(Nc1ccc(-c2ccc(N)cc2)cc1)OCC` ?
> 100 µM

Fill in: TGI of `Brc1ccc(C=NC23CC4CC(CC(C4)C2)C3)cc1` is ___
> 100 µM

Let us move to another entry and its TGI.
Can you look up the measured TGI of CC(C)CCCCCCCCCCCCC(=O)NCC(=O)NC1C(C)OC(Nc2ncnc3nc[nH]c23)C(O)C1O (stereo unspecified) for me?
0.00803 µM

----------
# Test system: CAKI-1 renal
# Assay Comment: NCI tumour cell line growth inhibition, 48 h
# maps each entry to its GI50

// below: answered compounds
// query GI50 value for entry `S=C1SCN(Cc2ccccc2)CN1Cc1ccccc1`
7.19 µM

What value of measured GI50 is listed for `COc1ccc(CNCCCN2C(=O)c3ccc4c5c(ccc(c35)C2=O)C(=O)N(CCCNCc2ccc(OC)c(OC)c2OC)C4=O)c(OC)c1OC` ?
0.671 µM

Which GI50 value belongs to `CC[C@H]1CCC/C=C/[C@@H]2C[C@H](O)C[C@H]2[C@H](O)/C=C/C(=O)O1` ?
0.0444 µM

Find the recorded GI50 belonging to COc1ccc2nc3c(cc2c1)C(=O)CC(c1ccccc1)C3 (centres undefined) and report it.
0.552 µM

State the recorded GI50 for this entry: `O=C1/C(=C/c2ccc(F)cc2)CN(C(=O)C(Cl)Cl)C/C1=C\c1ccc(F)cc1`
0.309 µM

Please look up its GI50: `CC[O-].CC[O-].O=C([CH-]C(=O)c1ccccc1)CCCCCCC(=O)[CH-]C(=O)c1ccccc1.[Ti+4]`
> 100 µM

---
Item under review: `C#Cc1cccc(NC(=O)c2cccc(NC(=O)CCl)c2)c1` . Reported GI50?
31.5 µM

Look up GI50: COc1ccc(C2=NN(C(C)=O)C(c3ccc(Oc4ccnc5cc(Cl)ccc45)c(OC)c3)C2)cc1 (centres undefined)
> 100 µM

Requested read-out: GI50. Entry: COc1ccc(C2CC(c3ccc(OC)cc3O)=NN2c2ccc(S(N)(=O)=O)cc2)cc1 (centres undefined)
6.74 µM
